- System: T98G
- protocol_notes: Antiproliferative activity against human T98G cells after 5 days by MTT assay
- Type: functional, cell-based
- condition_notes: 120 h
# reported pIC50; entries follow
Hey, just a heads up that pIC50 is the negative log base 10 of the concentration in molar.

CN(C)c1ccc2c(c1)OC(N)=C(C#N)C2c1ccc(N(C)C)c2ccccc12 (configuration not stated) : 7.90

// lookup pIC50 | system=T98G | key= Cn1nnc2c(C(N)=O)ncn2c1=O [TEMOZOLOMIDE]
3.24

* * *

- protocol_notes: Antiproliferative activity against human LN18 cells after 5 days by MTT assay
- Type: functional, cell-based
- condition_notes: LN-18, 120 h
# reported IC50; entries follow
Just the number in nM, nothing appended.

Example results:
Cn1nnc2c(C(N)=O)ncn2c1=O [TEMOZOLOMIDE] : 390000
CN(C)c1ccc2c(c1)OC(N)=C(C#N)C2c1cccc2c(F)cccc12 (stereo not drawn) : 80.4

Data request, read-out IC50, for CN(C)c1ccc2c(c1)OC(N)=C(C#N)C2c1ccc(N(C)C)c2ccccc12 (stereo not drawn)
13.3

* * *

# reported IC50; entries follow
- Test system: A-375
- protocol_notes: Antiproliferative activity against human A375 cells after 48 hrs by SRB assay
- Type: functional, cell-based
- condition_notes: A-375, 48 h
Just the number in nM, nothing appended.

Example results:
CN(C)c1ccc2c(c1)OC(N)=C(C#N)C2c1cccc2c(Br)cccc12 (stereo not given) : 140
COc1ccc(C2C(C#N)=C(N)Oc3cc(N(C)C)ccc32)c2ccccc12 (stereo not given) : 440

Data request, read-out IC50, for CN(C)c1ccc2c(c1)OC(N)=C(C#N)C2c1cccc2c(F)cccc12 (stereo not given)
130

// next record CN(C)c1ccc2c(c1)OC(N)=C(C#N)C2c1ccc(N(C)C)c2ccccc12 (stereo not given)
80

// next record CN(C)c1ccc2c(c1)OC(N)=C(C#N)C2c1ccc(F)c2ccccc12 (stereo not given)
280
